Molecular target: cdMMP-2 (isolated catalytic domain of MMP-2) (Homo sapiens, UniProt P08253)
Construct: the catalytic domain of MMP-2 (without the hemopexin-like domain) retains the capability of degrading; purchased Biomol International
Sequence (P08253 110-465 limits assumed): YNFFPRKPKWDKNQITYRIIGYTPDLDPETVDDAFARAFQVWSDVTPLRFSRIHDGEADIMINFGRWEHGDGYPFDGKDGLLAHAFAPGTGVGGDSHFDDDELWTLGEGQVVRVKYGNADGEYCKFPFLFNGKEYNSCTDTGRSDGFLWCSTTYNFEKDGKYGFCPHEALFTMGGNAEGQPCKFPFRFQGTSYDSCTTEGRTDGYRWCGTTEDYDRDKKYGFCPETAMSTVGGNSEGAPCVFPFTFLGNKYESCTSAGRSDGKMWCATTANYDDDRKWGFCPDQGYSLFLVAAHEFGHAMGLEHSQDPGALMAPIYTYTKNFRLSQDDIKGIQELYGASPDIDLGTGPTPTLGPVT
Experiment: cdMMP-2 proteolysis of fluorogenic peptide, modulation by α-DG C-term peptide
Format: biochemical
Conditions: cd-MMP-2, fluorogenic substrate, peptide 0–2 μM, pH 7.3, 37°C; global fit Eqs 1-3; read-out: Ka (peptide dissociation constant to the free enzyme, first, high affinity non-competitive site)
No end group written: not given here.
Assay Readout: pKd
In textbook form, pKd equals minus log to base ten of the concentration in mol/L.

Name the reported pKd value associated with the sequence VGDPALVLNDIHKKIALVKKLAFAFGDRNCSTITLQNIT [α-DG (613–651) peptide]
7.46
